B1: RIPK4 (parent)
chain: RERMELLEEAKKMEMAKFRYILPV

Variants of: B1
EXPERIMENTAL DETAILS: protein stability index of a GFP-peptide fusion (GPS, HEK-293T) (PSI 1-6); higher = more stable;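 also: lentivirally expressed fusions sorted by FACS into six bins by GFP to DsRed ratio, PSI derived from sequencing read proportions per bin multiplied by bin number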
CONDITION: c terminus: a fixed tail appended
Label YES when protein stability index >= 3; otherwise NO.

{"VARIANT KEY": "E8H", "CLASS LABEL": "NO"}
{"VARIANT KEY": "R3D", "CLASS LABEL": "YES"}
{"VARIANT KEY": "L7Q", "CLASS LABEL": "YES"}
{"VARIANT KEY": "E8T", "CLASS LABEL": "YES"}
{"VARIANT KEY": "E14M", "CLASS LABEL": "NO"}

Qu. Decide: is the reported value of protein stability index for K12F equal to or greater than 3?
Ans. NO

Qu. Similarly, M4W ?
Ans. NO

Qu. Okay, and E2N ?
Ans. YES

Qu. Another: E14C
Ans. YES

Qu. // repeat for E9F and report
Ans. NO

Qu. Quick one: R19I
Ans. NO

Qu. Now give it for L6G too.
Ans. YES

Qu. Now consider E14Y .
Ans. NO

Qu. K12Q , same question.
Ans. YES
